Consider the following compounds; for each one, report its viability.
Assay Explanation: drug combination growth inhibition, ovarian cancer – cell-based, oncology-focused library, rucaparib conditional, profiling panel (AID 1508598)
Measurement Context: patient-derived ovarian cancer cells, CellTiter-Glo viability, 144 h; at 0.0195 µM; OCI-C5x cells; without rucaparib; stronger effect = lower value
Active and inactive are the calls of the source.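 The calls were made as follows: active = normalized viability below 100% at a tested concentration; inactive = the rest.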

As a guide, the following entries are already answered.
- COc1c(C)cnc(Cn2cnc3c(Cl)nc(N)nc32)c1C: 111% (inactive)
- C=C(c1ccc(C(=O)O)cc1)c1cc2c(cc1C)C(C)(C)CCC2(C)C: 119% (inactive)
- Nc1ccccc1NC(=O)c1ccc(CNc2nccc(-c3cccnc3)n2)cc1: 117% (inactive)
- CN(c1ncccc1CNc1nc(Nc2ccc3c(c2)CC(=O)N3)ncc1C(F)(F)F)S(C)(=O)=O: 122% (inactive)
- O=C(Nc1cn[nH]c1-c1nc2ccc(CN3CCOCC3)cc2[nH]1)NC1CC1: 111% (inactive)

Could I get viability for every one of these entries?
1. COc1cc(OC2CCN(C)CC2)ccc1Nc1ncc2c(n1)n(C1CCCC1)c(=O)n2C
2. O=C(c1cc(Cc2n[nH]c(=O)c3ccccc23)ccc1F)N1CCN(C(=O)C2CC2)CC1
3. Cc1cnc(NC(=O)Nc2cc(Br)c(C)cc2OC[C@@H]2CNCCO2)cn1
4. O=C(NCCCNc1nc(Nc2cccc(NC(=O)N3CCCC3)c2)ncc1I)c1cccs1
5. Cc1nc(Nc2n[nH]c3c2CN(C(=O)N[C@H](CN(C)C)c2ccccc2)C3(C)C)c2sccc2n1
6. CNC(=O)c1ccc(N2C(=S)N(c3ccc(C#N)c(C(F)(F)F)c3)C(=O)C2(C)C)cc1F
7. N#Cc1c(NC(=O)c2cccc3ccccc23)sc2c1CCCC2

## Result
1: 113% (inactive); 2: 123% (inactive); 3: 113% (inactive); 4: 102% (inactive); 5: 66.6% (active); 6: 95.6% (active); 7: 116% (inactive)

###

Assay Explanation: growth inhibition of DIPG cells – cell-based, MIPE4.0 library, CellTiter-Glo luminescence, qHTS (AID 1347066);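 also: cells exposed to compound for 48 hours before readout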
Measurement Context: SU-DIPG-VI viability, CellTiter-Glo ATP luminescence
Results filed as inconclusive are left out. Activity calls are given as the source filed them. The limit is not given here; nearly all actives have AC50 up to about 30 µM.
A correct response names exactly one class from active, inactive

Solved entries (count: 8):
• O=c1c2ccccc2nc2n1CCc1c-2[nH]c2ccccc12 = inactive
• CC/C(=C(/c1ccc(O)cc1)c1ccc(OCCNC)cc1)c1ccccc1 = active
• Nc1ncnc2c1c(-c1cccc(OCc3ccccc3)c1)cn2C1CC(CN2CCC2)C1 (centres undefined) = active
• O=C1NC(=O)[C@@H](c2cn3c4c(cccc24)CCC3)[C@@H]1c1c[nH]c2ccccc12 = active
• CCC(C(=O)O)C1CCC(C)C(C(C)C(O)C(C)C(=O)C(CC)C2OC3(C=CC(O)[C@@]4(CC[C@](C)(C5CC[C@@](O)(CC)C(C)O5)O4)O3)C(C)CC2C)O1 (some centres undefined) = active
• COc1cccc(OC)c1-c1cc(C(=O)NC2(C(=O)O)C3CC4CC(C3)CC2C4)nn1-c1ccnc2cc(Cl)ccc12 (centres undefined) = inactive
• Clc1cccc(-n2nnnc2NCc2ccccc2Oc2ccccn2)c1Cl = inactive
• COc1ccccc1[C@H](c1cccc2ccccc12)[C@@](C)(C#N)C(=O)N1CCC(c2cccc(C(F)(F)F)c2)CC1 = inactive

Continue with the next compound.
## Task How was COc1cc2c(cc1OC)C1CC(=O)C(CC(C)C)CN1CC2 (centres undefined) classified in this test?
## Result inactive

###

Please respond with reported inhibition for every item in the list.
Assay Explanation: growth inhibition, single agents and combos, ICB984, cell-based, cisplatin or BGB combos, synergistic combos for chromothripsis tumors (AID 1671451);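 also: cells exposed for 96 hours before readout; 0% = vehicle DMSO and 100% = killing by high DMSO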
Measurement Context: ICB984 medulloblastoma cells, drug combinations, cisplatin combo, at 0.05 µM, stronger effect = higher value
Give bare numbers, in %.

• COc1ccc(C(=O)C2CCN(CC(=O)N(Cc3nc4c(c(=O)[nH]3)COCC4)CC3CC3)CC2)cc1 = -10.1
• COc1cc(C=O)c([N+](=O)[O-])cc1OC = -45.3
• Nc1ncnc2c1c(-c1cnc3[nH]ccc3c1)nn2C1CCCC1 = 74.3
• NC1CCC(N[C@@H]2C[C@H]2c2ccccc2)CC1 (stereo not given in full) = -50.3
• CN[C@@H]1CN(c2ccc3c(=O)c(C(=O)O)cn(-c4nccs4)c3n2)C[C@H]1OC = 100
• O=C(/C=C/c1cccc(S(=O)(=O)Nc2ccccc2)c1)NO = 94.8
• COc1ccc(C(=O)CC2(O)C(=O)Nc3c(Cl)ccc(Cl)c32)cc1 (stereo not given) = 8.85
• Cc1ccc([N+](=O)[O-])cc1S(=O)(=O)N(C)/N=C/c1cnc2ccc(Br)cn12 = 99.2
• COc1ccc(-n2c(SCCCN3C(=O)c4cccc5cccc(c45)C3=O)nnc2-c2ccncc2)cc1 = -33.7

// switching to the query molecule
## Task Requested field: inhibition. Item: O=c1cc(N2CCOCC2)oc2c1ccc1ccccc12
## Result -10.2

###

Assay Explanation: growth inhibition of DIPG cells – cell-based, MIPE4.0 library, CellTiter-Glo luminescence, qHTS (AID 1347066);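 also: cells exposed to compound for 48 hours before readout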
Measurement Context: SU-DIPG-VI viability, CellTiter-Glo ATP luminescence
Records with an inconclusive call do not appear. The source made the active and inactive calls. No cut-off is given here; in the data, nearly all actives have AC50 up to about 30 µM.
Use one of these outcomes when replying: T = active, F = inactive

• Cc1ccc(S(=O)(=O)N[C@@H](Cc2ccccc2)C(=O)CCl)cc1 = T

## Task Assay result, entry CC[C@@H]1/C=C(\C)C[C@H](C)C[C@H](OC)[C@H]2O[C@@](O)(C(=O)C(=O)N3CCCC[C@H]3C(=O)O[C@H](/C(C)=C/[C@@H]3CC[C@H](Cl)[C@H](OC)C3)[C@H](C)[C@@H](O)CC1=O)[C@H](C)C[C@@H]2OC — outcome?
## Result F

###

Assay Explanation: drug combination toxicity in non-malignant astrocytes – cell-based, BGB or cisplatin IC20 combos, cytotoxicity control for chromothriptic childhood tumor combination screen (AID 1671460);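 also: cells exposed to compounds for 96 hours before viability readout; 0% = vehicle and 100% = killing control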
Measurement Context: Human astrocytes, viability inhibition, drug combinations; measured here: combo with BGB IC20; at 0.5 µM; stronger effect = higher value
Record form. Attribute: inhibition. Fill in for each entry.
Give bare numbers, in %.

* Nc1nc(OCc2cc(Br)cs2)c2[nH]cnc2n1 | 2.71
* CO[C@H]1/C=C/O[C@@]2(C)Oc3c(C)c(O)c4c(O)c(c(/C=N\N5CCN(C6CCCC6)CC5)c(O)c4c3C2=O)NC(=O)/C(C)=C\C=C\[C@H](C)[C@H](O)[C@@H](C)[C@@H](O)[C@@H](C)[C@H](OC(C)=O)[C@@H]1C | -21
* Cc1ccc2nc(NCCN)c3ncc(C)n3c2c1 | 0.763
* CC(=O)Nc1ccc(C(=O)Nc2ccccc2N)cc1 | 9.55
* CN(C)CCN1C(=O)c2cccc3cc(N)cc(c23)C1=O | -2.82
* Cc1cn([C@@H]2O[C@H](CO)[C@@H](O)[C@@H]2F)c(=O)[nH]c1=O | 14.5
* CN[C@@H]1CN(c2ccc3c(=O)c(C(=O)O)cn(-c4nccs4)c3n2)C[C@H]1OC | 29
* Cc1ccc([N+](=O)[O-])cc1S(=O)(=O)N(C)/N=C/c1cnc2ccc(Br)cn12 | 77.8
* Nc1ncnc2c1c(-c1cnc3[nH]ccc3c1)nn2C1CCCC1 | 55.9
* Nc1ccccc1NC(=O)c1ccc(CNc2nccc(-c3cccnc3)n2)cc1 | 21.7

// each listed compound needs a value for inhibition
1. O=C(COc1cccc2c(=O)[nH]ccc12)c1ccccc1
2. CN(C)C/C=C/C(=O)Nc1ccc(C(=O)Nc2cccc(Nc3ncc(Cl)c(-c4c[nH]c5ccccc45)n3)c2)cc1
3. CN(C)c1ccc(C(=O)NCCCCCCC(=O)NO)cc1
4. COc1cc(C=O)c([N+](=O)[O-])cc1OC
5. CCCCc1nc2cc(/C=C/C(=O)NO)ccc2n1CCN(CC)CC

## Result
1: 3.19; 2: 86.5; 3: 24.7; 4: -3.78; 5: 44.4

###

Assay Explanation: compounds altering HSF1 focus formation in cells – imaging, Selleck Cancer Library (AID 1347162)
Measurement Context: human cells, HSF1 nuclear foci imaging, at 10 µM; measured here: HSF1 foci SSMD mean
Assay Metric: SSMD
One number for each entry.

Known SSMD results, listed for orientation:
- Cc1cnc(-c2cnc(NCCNc3ccc(C#N)cn3)nc2-c2ccc(Cl)cc2Cl)[nH]1: -0.145
- CCN(CCO)CCCOc1ccc2c(Nc3cc(CC(=O)Nc4cccc(F)c4)[nH]n3)ncnc2c1: 1.14
- CC(=O)OCCN1C(=O)c2c(C)nc3ccc(S(=O)(=O)N4CCOCC4)cc3c2C1=O: 2.02
- N#Cc1ccc(NC(=O)Nc2ccccc2Br)c2n[nH]nc12: -0.0129

Let us examine a further case.
## Task Need SSMD, item CCN(CC)CCCCNc1ncc2cc(-c3cc(OC)cc(OC)c3)c(NC(=O)NC(C)(C)C)nc2n1
## Result -4.74
